Every entry's value here was drawn from PubChem BioAssay (NCI).

- System: 786-0 renal
- ASSAY COMMENT: NCI tumour cell line growth inhibition, 384-well format

| MOLECULE | GI50 |
| --- | --- |
| COC(=O)c1ccc2c(C(=Nc3ccc(N(C)C(=O)CN4CCN(C)CC4)cc3)c3ccccc3)c(O)[nH]c2c1 | 1.4 µM |
| CCN(CCO)CCCOc1ccc2c(Nc3cc(CC(=O)Nc4cccc(F)c4)[nH]n3)ncnc2c1 | 16 µM |
| CS(=O)(=O)N1CCc2c(-c3cnc(N)nc3)nc(N3CCOCC3)nc21 | 1.71 µM |
| CNCCN(C)Cc1cn[nH]c1-c1ccc(OC2CC(OCCC3CCOCC3)C2)cc1 (centres undefined) | 41.4 µM |
